Values were extracted from ChEMBL document CHEMBL5233250.

# TESTED_TARGET: Coagulation factor XIII A chain (Homo sapiens, UniProt P00488)
# Sequence (P00488 whole entry): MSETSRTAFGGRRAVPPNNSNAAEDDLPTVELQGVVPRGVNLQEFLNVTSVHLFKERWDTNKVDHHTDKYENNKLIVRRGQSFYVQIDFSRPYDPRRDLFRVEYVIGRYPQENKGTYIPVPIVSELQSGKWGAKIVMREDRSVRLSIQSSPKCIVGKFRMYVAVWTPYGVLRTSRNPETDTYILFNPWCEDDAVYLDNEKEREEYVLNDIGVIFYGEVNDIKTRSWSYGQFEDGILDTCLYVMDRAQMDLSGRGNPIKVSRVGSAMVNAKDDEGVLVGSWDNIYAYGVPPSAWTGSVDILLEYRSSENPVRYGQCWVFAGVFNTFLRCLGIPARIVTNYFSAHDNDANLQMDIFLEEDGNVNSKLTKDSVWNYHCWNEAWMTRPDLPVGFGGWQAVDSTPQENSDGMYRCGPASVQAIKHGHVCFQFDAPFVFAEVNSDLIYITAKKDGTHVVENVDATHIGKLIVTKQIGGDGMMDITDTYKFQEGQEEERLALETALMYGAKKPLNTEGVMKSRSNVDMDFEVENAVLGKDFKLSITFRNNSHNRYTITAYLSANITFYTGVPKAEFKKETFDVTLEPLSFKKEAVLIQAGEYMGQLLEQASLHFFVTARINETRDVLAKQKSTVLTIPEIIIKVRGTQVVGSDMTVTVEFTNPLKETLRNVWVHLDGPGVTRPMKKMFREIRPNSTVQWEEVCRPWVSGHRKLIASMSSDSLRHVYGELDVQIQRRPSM
# MEASUREMENT_NOTES: Inhibition of human plasma coagulation factor XIIIa by fluorescence spectrophotometeric assay
# Type: cell-free
READOUT_LABEL: IC50 (nM)
Express the result in nM but write the number alone.

Consider the worked cases shown below.
O=C(O)CCCCCc1cc1=O | 1900
O=C(O)CCCCCCCCCCc1cc1=O | 310

Query block: Query: IC50; subject: `O=C(O)CCCCCCCc1cc1=O`
Result block: 610

Query block: What do we get for `O=C(CCCCCCCc1cc1=O)NCCc1ccccc1` ?
Result block: 26

---

# TESTED_TARGET: Protein-glutamine gamma-glutamyltransferase (Homo sapiens)
# Sequence (P21980 whole entry): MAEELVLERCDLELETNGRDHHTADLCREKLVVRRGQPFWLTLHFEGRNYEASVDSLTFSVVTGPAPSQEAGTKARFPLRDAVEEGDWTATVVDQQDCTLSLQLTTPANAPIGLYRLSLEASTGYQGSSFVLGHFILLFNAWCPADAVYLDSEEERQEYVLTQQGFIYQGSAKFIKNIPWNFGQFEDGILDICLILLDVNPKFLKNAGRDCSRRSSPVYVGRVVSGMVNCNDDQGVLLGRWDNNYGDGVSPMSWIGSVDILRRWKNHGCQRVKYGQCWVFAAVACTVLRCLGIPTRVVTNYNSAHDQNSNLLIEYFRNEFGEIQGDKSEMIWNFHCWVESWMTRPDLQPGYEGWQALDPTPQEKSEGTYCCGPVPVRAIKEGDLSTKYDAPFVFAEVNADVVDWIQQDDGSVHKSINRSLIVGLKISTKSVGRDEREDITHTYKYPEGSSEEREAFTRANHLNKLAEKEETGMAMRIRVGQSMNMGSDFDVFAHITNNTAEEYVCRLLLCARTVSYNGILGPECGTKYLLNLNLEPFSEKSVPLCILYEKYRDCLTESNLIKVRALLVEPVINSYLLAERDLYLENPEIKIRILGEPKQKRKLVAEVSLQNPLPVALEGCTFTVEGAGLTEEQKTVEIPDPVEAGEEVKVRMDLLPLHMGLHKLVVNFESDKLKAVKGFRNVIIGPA
READOUT_LABEL: IC50
Hey, just the number and the unit after it is fine.

Query block: Could you share which IC50 value was measured for `C[C@@H]1CCC/C=C\C(=O)Cc2cc(O)cc(O)c2C(=O)O1` ?
Result block: 3.1 µM

---

# MEASUREMENT_NOTES: Ratio of rate constant for human plasma coagulation factor XIIIa to rate constant for Glutathione (unknown origin)
# Ratio annotations

CC(=O)CSc1n(C)cc[n+]1C | 1.9 10^6No_unit
Cc1c(C)[n+](C)c(SCC(=O)CSc2nnnn2C)n1C | 4.1 10^6No_unit

Query block: Recorded Ratio for `NC(=O)CI` , please?
Result block: 5 10^3No_unit

Query block: Item: `CC(=O)CSc1n(C)c(C)c(C)[n+]1C`
Result block: 3.9 10^4No_unit

---

# TESTED_TARGET: Coagulation factor XIII A chain (Homo sapiens)
# MEASUREMENT_NOTES: Inhibition of human plasma coagulation factor XIIIa
# Assay type: cell-free
READOUT_LABEL: pIC50
Units for pIC50: none; it is -log10 of a concentration expressed in mol/L.

Query block: pIC50 lookup needed for `CC(=O)CSc1n(C)c(-c2ccccc2)c(-c2ccccc2)[n+]1C` , thanks.
Result block: 6.46

---

# MEASUREMENT_NOTES: Plasma concentration in New Zealand White rabbit at iv dosed upto 8 hrs by HPLC method
# Type: ADME, organism-based, Oryctolagus cuniculus
READOUT_LABEL: concentration at 8 h (µM)
The figure you give is taken to be in µM; do not add the unit.

Query block: GET /values?readout=concentration at 8 h&item= `O=[N+]([O-])c1ccccc1S(=O)(=O)NCCCCCCNc1nsc2nccn12`
Result block: 80

---

# TESTED_TARGET: Coagulation factor XIII A chain (Bos taurus) (UniProt P12260)
# Sequence (P12260 whole entry): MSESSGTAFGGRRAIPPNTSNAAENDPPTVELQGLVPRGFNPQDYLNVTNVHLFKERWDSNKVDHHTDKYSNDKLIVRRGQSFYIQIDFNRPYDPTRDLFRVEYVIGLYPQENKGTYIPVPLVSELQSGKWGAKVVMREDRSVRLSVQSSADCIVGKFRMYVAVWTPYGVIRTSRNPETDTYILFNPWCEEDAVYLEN
# MEASUREMENT_NOTES: Inhibition of bovine plasma coagulation factor XIIIa assessed as threshold concentration by measuring insoluble fibrin per total fibrin incubated for 30 mins in presence of bovine fibrin by biuret method
# Type: cell-free
The entries below come with measured Activity values attached.
Write down the numeric answer in µg/mL and omit the unit.

Cc1ccc(S(=O)(=O)NCCCCCCCCCCC(=O)CCl)cc1 | 50

Query block: May I ask what Activity has been recorded for `Cc1ccc(S(=O)(=O)NCCCCCC(=O)CCl)cc1` ?
Result block: 0.05

Query block: Now give it for `Cc1ccc(S(=O)(=O)NCCCCOC(=O)CCl)cc1` too.
Result block: 40

Query block: Also need `Cc1ccc(C(=O)NCCCCCC(=O)CCl)cc1` , thanks.
Result block: 0.8

Query block: `Cc1ccc(S(=O)(=O)NCCCCNC(=O)CCl)cc1` ?
Result block: 15

Query block: Then `O=C(CCl)CCCCCNS(=O)(=O)c1ccc(Cl)cc1` ?
Result block: 0.2

Query block: Moving on to `Cc1ccc(S(=O)(=O)N(C)CCCCCC(=O)CCl)cc1`
Result block: 0.1

---

Reported IC50 is given for each of the following molecules.
# TESTED_TARGET: Coagulation factor XIII A chain (Homo sapiens)
# MEASUREMENT_NOTES: Inhibition of human coagulation factor XIIIa

CC(=O)NCCc1ccc(O)cc1 | 0.2 µM

Moving on to another molecule below.
Query block: # IC50 lookup, item O=C1C(OS(=O)(=O)O)=C(c2ccc(OS(=O)(=O)O)c(OCCCOc3cc(OS(=O)(=O)O)cc4oc(-c5ccc(OS(=O)(=O)O)c(OS(=O)(=O)O)c5)c(OS(=O)(=O)O)c(=O)c34)c2)OC2C=C(OS(=O)(=O)O)C=C(OCCCOc3cc(OS(=O)(=O)O)cc4oc(-c5ccc(OS(=O)(=O)O)c(OS(=O)(=O)O)c5)c(OS(=O)(=O)O)c(=O)c34)C12 (configuration not stated)
Result block: 118 µM
